- SUBJECT OF TEST: T1, human ST2L extracellular domain with C-terminal His6 tag (human, UniProt Q01638 19-328)
- T1 construct: also called huST2L-ECD; ST2L-ECD
- T1 sequence: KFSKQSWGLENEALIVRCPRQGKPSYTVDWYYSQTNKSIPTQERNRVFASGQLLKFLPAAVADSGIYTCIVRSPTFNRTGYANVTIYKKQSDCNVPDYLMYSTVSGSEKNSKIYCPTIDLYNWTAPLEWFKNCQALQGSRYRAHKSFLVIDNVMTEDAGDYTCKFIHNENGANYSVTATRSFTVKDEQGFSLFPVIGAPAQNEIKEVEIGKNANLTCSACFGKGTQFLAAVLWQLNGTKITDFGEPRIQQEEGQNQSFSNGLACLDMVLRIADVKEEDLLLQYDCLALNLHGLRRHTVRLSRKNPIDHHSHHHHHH
- ASSAY NOTES: SPR, mAb captured, ST2L-ECD in solution
Reported koff values are given for each entry in this list.
The reply should contain only the number, in s⁻¹.

Some binders with known koff results, for comparison:
| BINDER | UNIT ABBREV | MEASUREMENT |
| --- | --- | --- |
| STLM208 (antibody, V domains shown, frameworks VH3-23 / Vk-L6) VH: EVQLLESGGGLVQPGGSLRLSCAASGFTFSIYDMIWVRQAPGKGLEWVSSIRGEGGGTYYADSVKGRFTISRDNSKNTLYLQMNSLRAEDTAVYYCARDPWSTEGSFFVLDYWGQGTLVTVSS VL: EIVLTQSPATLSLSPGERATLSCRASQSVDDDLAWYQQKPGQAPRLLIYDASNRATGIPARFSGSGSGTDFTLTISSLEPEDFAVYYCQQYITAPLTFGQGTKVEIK | s⁻¹ | 6.76e-05 |
| STLM226 (antibody, V domains shown, VH STLH201 + VL STLL280) VH: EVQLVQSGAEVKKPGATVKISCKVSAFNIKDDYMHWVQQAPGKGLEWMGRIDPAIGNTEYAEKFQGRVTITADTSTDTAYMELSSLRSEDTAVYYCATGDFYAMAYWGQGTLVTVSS VL: DIQMTQSPSSLSASVGDRVTITCITNTDIDDVIHWYQQKPGKAPKLLIYEGNTLRPGVPSRFSGSGSGTDFTLTISSLQPEDFATYYCLQSDNLLTFGQGTKLEIK | s⁻¹ | 0.00193 |

Shift focus to the following entry.
Request: Need koff, item STLM123 (antibody, V domains shown, frameworks VH3-23 / Vk-L6) VH: EVQLLESGGGLVQPGGSLRLSCAASGFTFSDYAMFWVRQAPGKGLEWVSAIEGEGGETNYADSVKGRFTISRDNSKNTLYLQMNSLRAEDTAVYYCARDPWSTEGSFFVLDYWGQGTLVTVSS VL: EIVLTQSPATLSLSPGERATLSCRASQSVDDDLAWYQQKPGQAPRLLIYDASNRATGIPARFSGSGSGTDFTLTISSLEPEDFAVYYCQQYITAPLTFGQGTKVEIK
Result: 0.000208
